Each record here notes measured normalized growth.
- PROCEDURE_DETAILS: chemical genetic growth profiling, strain panel (AID 1159580);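 note: tested at 20 µM; growth read once vehicle control cultures reached saturation at 30 °C; 1 = growth at the plate median or of vehicle wells; lower values mean less growth of the strain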
- EXPERIMENTAL_PARAMETERS: S. cerevisiae deletion strains, growth OD, locus YNR049C, strain mso1, stronger effect = lower value
About 2,000 (36%) of roughly 5,500 compounds were called active. Inconclusive results (about 18%) are left out. The list shows a part of the results.
Would you mind answering with just the numeric figure?

CN(C)C(=O)Oc1ccc[n+](C)c1 :: 1

Documented normalized growth of CC(=O)O[C@H]1C[C@@H](OC(C)=O)C(C)(C)C2C[C@@H](OC(C)=O)[C@]3(C)C(CC[C@@]4(C)[C@H](c5ccoc5)OC(=O)[C@H]5O[C@]543)[C@]21C (stereo partly specified) : 0.991

Documented normalized growth of O=C(O)[C@@H](S)[C@@H](S)C(=O)O : 0.941

Documented normalized growth of CC(C)(S)[C@@H](N)C(=O)O : 0.997

Documented normalized growth of CCCCC(=O)O[C@]1(C(=O)CO)CCC2C3CCC4=CC(=O)CC[C@]4(C)C3[C@@H](O)C[C@@]21C (stereo partly specified) : 0.98

Documented normalized growth of CC[C@@H]1OC(=O)C[C@@H](O)[C@H](C)[C@@H](O[C@@H]2O[C@H](C)[C@@H](O)[C@H](N(C)C)[C@H]2O)[C@@H](CCN2C[C@H](C)C[C@H](C)C2)C[C@@H](C)C(=O)/C=C/C(C)=C\[C@@H]1CO[C@@H]1O[C@H](C)[C@@H](O)[C@@H](OC)[C@H]1OC : 1

Documented normalized growth of CC(C)c1nc(N(C)S(C)(=O)=O)nc(-c2ccc(F)cc2)c1/C=C/[C@@H](O)C[C@@H](O)CC(=O)O : 1.02

Documented normalized growth of C=NC(C(=O)NC1C(=O)N2C1SC(C)(C)C2C(=O)O)c1ccccc1 (stereo unspecified) : 0.998

Documented normalized growth of CC(=O)O[C@@H]1CC2C(C)(C)C(=O)C3OC3[C@]2(C)C2CC[C@@]3(C)[C@H](c4ccoc4)OC(=O)C4OC43[C@@]21C (stereo partly specified) : 0.976

Documented normalized growth of CC12CCC3C(=CCc4cc(O)ccc43)C1CCC2=O (stereo unspecified) : 0.987

###

- PROCEDURE_DETAILS: chemical genetic growth profiling, strain panel (AID 1159580);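 note: tested at 20 µM; growth read once vehicle control cultures reached saturation at 30 °C; 1 = growth at the plate median or of vehicle wells; lower values mean less growth of the strain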
- EXPERIMENTAL_PARAMETERS: S. cerevisiae deletion strains, growth OD, locus YDL074C, strain BRE1, stronger effect = lower value
Screen size: about 5,500 compounds; about 2,000 (36%) were called active. About 18% were inconclusive and are not listed. This is one part of the list.
Each record here notes measured normalized growth.
Would you mind answering with just the numeric figure?

// known answers, use as guide
CN(C)CCC(c1ccccc1)c1ccccn1 (configuration not stated) :: 0.991
CC(=O)OCC(=O)[C@@]1(O)CCC2C3CCC4=CC(=O)C=CC4(C)C3[C@@H](O)C[C@@]21C (some centres not stated) :: 1.02

Documented normalized growth of CC(=O)O[C@]1(C)CC[C@@]23CC1C(C)(C)[C@@H]2CC[C@H]3C : 0.958

Documented normalized growth of NCCCC(=O)O : 1.01

Documented normalized growth of NC(C(=O)O)C(O)C(=O)O (configuration not stated) : 1.02

Documented normalized growth of O=c1cccc2n1CC1CC2CN2CCCC[C@@H]12 (some centres not stated) : 1.01

Documented normalized growth of NC(N)=NCCCCN=C(N)N : 0.957
